Every entry's value here was drawn from the supplement of paper PMC10126150.

I'd be grateful if you could share measured switch fluorescence ratio for these entries.
# Tested on: ATP;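 also: ATP exposure 15 min at 22 °C before imaging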
# methodNotes: switch fluorescence ratio, 500 uM ATP over buffer (Cy3 cluster intensity, sum of 5 cycles each) (fold (ratio)); higher = stronger signal-on switching upon ATP binding; sequences stand for … in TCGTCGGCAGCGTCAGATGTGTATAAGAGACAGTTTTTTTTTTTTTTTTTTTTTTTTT…TC
# statedConditions: aptamer strand: ATP DNA aptamer (quencher-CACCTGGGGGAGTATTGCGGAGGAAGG + anchor), 100 nM annealed; ATP concentration: 500 uM
Simply state the number, no unit and no words.

Sample TTTTTTGTGA — what was its switch fluorescence ratio?
1

And the next one, TCAAATTTTC ?
1.02

And the next one, TTGGCTTAG ?
0.999

And the next one, AGATATTCCG ?
0.987

And the next one, GGTTATTTTG ?
1.01

And the next one, ATGGTCTTAT ?
0.997

And the next one, TTCGGCAGTG ?
1.02

And the next one, TTATGAGATA ?
0.996

And the next one, GGGGTGTCTT ?
0.992

And the next one, GGGGGTGACC ?
1.02

And the next one, TTTTAGTACT ?
0.99

And the next one, TGCTTTGTGT ?
0.978

And the next one, GTCGGACGGA ?
0.971

And the next one, CGGGGAAGGT ?
1

And the next one, ACTTGCGTCG ?
0.981

And the next one, TGCCGAAAGC ?
1.02

And the next one, TAAGATGACG ?
1.13

And the next one, TTGGGAATAA ?
1.02

And the next one, TATATAGTCT ?
1.02

And the next one, GAGGCTCGGA ?
0.982

And the next one, GGGGTAAAGG ?
1.04

And the next one, CGGGAGTGCT ?
0.994

And the next one, TCTGACAGTT ?
1.04

And the next one, CAGACTGGGG ?
1

And the next one, TCGCACGTAT ?
1.03

And the next one, TCGAGTATCT ?
0.999

And the next one, TATTGGATTA ?
1.01

And the next one, AAATAAGGAG ?
1.02

And the next one, GGCGTCTTCC ?
1.01

And the next one, AAGGGGTTCG ?
1.05

And the next one, TTTAGATTCA ?
1

And the next one, GTTTGTGGCG ?
0.959

And the next one, TGTAGTGTTG ?
1

And the next one, AAGGTCCATG ?
0.963

And the next one, AGTAGGCGAG ?
0.996

---

# Test system: ATP;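 also: ATP exposure 15 min at 22 °C before imaging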
# methodNotes: switch fluorescence ratio, 500 uM ATP over buffer (Cy3 cluster intensity, sum of 5 cycles each) (fold (ratio)); higher = stronger signal-on switching upon ATP binding; sequences stand for … in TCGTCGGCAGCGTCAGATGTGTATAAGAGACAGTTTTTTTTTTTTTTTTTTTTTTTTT…TC
# statedConditions: aptamer strand: ATP DNA aptamer (quencher-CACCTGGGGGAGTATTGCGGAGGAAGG + anchor), 100 nM annealed; ATP concentration: 500 uM
Output y for switch fluorescence ratio not less than 1; output n otherwise.

Determine whether measured switch fluorescence ratio meets or exceeds 1 for TTTGGGGTTT
y

And the next one, CATGATATGG ?
n

And the next one, TTACAGGGGG ?
y

And the next one, TCCGGCGTGC ?
y

And the next one, CGTTTCGAAT ?
n

And the next one, TTTTGGGCTT ?
y

And the next one, ACGATTATTC ?
y

And the next one, TGTTAAAATT ?
n

And the next one, TCCGACGGTT ?
y

And the next one, CGATAACGGG ?
y

And the next one, AAGGAGTTGT ?
n

And the next one, AATGAAAGCC ?
y

---

# Test system: ATP;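 also: ATP exposure 15 min at 22 °C before imaging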
# methodNotes: switch fluorescence ratio, 500 uM ATP over buffer (Cy3 cluster intensity, sum of 5 cycles each) (fold (ratio)); higher = stronger signal-on switching upon ATP binding; sequences stand for … in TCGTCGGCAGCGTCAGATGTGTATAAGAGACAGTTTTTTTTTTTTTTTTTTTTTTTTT…TC
# statedConditions: aptamer strand: ATP DNA aptamer (quencher-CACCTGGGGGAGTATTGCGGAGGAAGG + anchor), 100 nM annealed; ATP concentration: 500 uM
attributeMeasured: switch fluorescence ratio
Simply state the number, no unit and no words.

// fetch ATP switch fluorescence ratio for GTACTTGGCT
1.02

And the next one, AGATTGGTTC ?
0.995

And the next one, TGGCTGTGGG ?
0.991

And the next one, GCAGAGTGTT ?
1.02

And the next one, GATAGACCAG ?
1.01

And the next one, CGCCATTTTT ?
0.982

And the next one, TCCATTCATA ?
1.01

And the next one, GAGTTAGGGG ?
0.998

And the next one, GTATTAGGGG ?
1.01

And the next one, TTAGTGAAGT ?
1

And the next one, GCATTGCGGC ?
0.991

And the next one, GTTCGGGTTG ?
0.988

And the next one, ATTATGTTCT ?
1.01

And the next one, GGCGCCGTTG ?
0.978

And the next one, GAGCTCCAGA ?
1.01

And the next one, GTGGACTTAA ?
0.995

And the next one, CCGGAAACCA ?
1.01

And the next one, ATGTACTTGG ?
1.02

---

I'd be grateful if you could share measured switch fluorescence ratio for these entries.
# System: ATP;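 also: ATP exposure 15 min at 22 °C before imaging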
# methodNotes: switch fluorescence ratio, 500 uM ATP over buffer (Cy3 cluster intensity, sum of 5 cycles each) (fold (ratio)); higher = stronger signal-on switching upon ATP binding; sequences stand for … in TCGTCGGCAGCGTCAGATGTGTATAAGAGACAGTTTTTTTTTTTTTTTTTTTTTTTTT…TC
# statedConditions: aptamer strand: ATP DNA aptamer (quencher-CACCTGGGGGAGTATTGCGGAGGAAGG + anchor), 100 nM annealed; ATP concentration: 500 uM
Simply state the number, no unit and no words.

Sample TTTAATTGTA — what was its switch fluorescence ratio?
1.01

And the next one, AGTGTCGTGC ?
1

And the next one, CGGAGAATGG ?
1.11

And the next one, GGGGGTGAGT ?
1.02

And the next one, TGTACCGTGC ?
1.07

And the next one, GTGCATGTGG ?
0.97

And the next one, AGAGGGCTTG ?
0.997

And the next one, TACTCTGGAA ?
4.15

And the next one, TAAAGGGGAA ?
1.01

And the next one, TCACTATTTA ?
1.01

And the next one, ACAGGGGGGG ?
1.07

And the next one, CGGGGTACCT ?
1.01

And the next one, TGGGGGGCGA ?
0.997

And the next one, GAGACATGTT ?
0.99

And the next one, GAAAGGGGTG ?
1.02

And the next one, GGAGGGCCTG ?
0.986

And the next one, TTTATTAATG ?
1.01

And the next one, TATGATTTTG ?
0.993

And the next one, TTGGGGGGTG ?
1.04

And the next one, AACTGGGGTG ?
1.03

And the next one, GATTTGCAGG ?
0.983

And the next one, GGATACGTTG ?
1.02

And the next one, CATTACGTGC ?
0.996

And the next one, GGGTCTTAAT ?
0.981

And the next one, AGGGGTTGGA ?
1.01

And the next one, GTTATGGTAC ?
1.03

And the next one, TCTCGGAAGA ?
1.01

And the next one, TACGAAAAGA ?
1.04

And the next one, TCCAGGGAAT ?
1.04

And the next one, ATGGTGTACT ?
1.01

And the next one, GGGTGACGGT ?
1.01

And the next one, TATTTATTGC ?
1.01

And the next one, CCAAGGAGAC ?
1.35

And the next one, TGCGGGGGCG ?
0.992

And the next one, TTGTTTTATT ?
0.981

And the next one, TCGAGCTTGT ?
1

And the next one, GGATCGTTCC ?
1.1

And the next one, GGGGTACGCA ?
1.02

And the next one, AATTGGATCT ?
1.01

And the next one, AGTAGCGATT ?
1.06

And the next one, AATTCCTCTT ?
1.05

And the next one, ACATGGGGCG ?
1

And the next one, CAGGGTGGTC ?
1.04

And the next one, TTTTCAAGTC ?
1.05

And the next one, TTTGATCTGC ?
0.961

And the next one, TTTACCATAG ?
1.06

And the next one, TCGCTGTTGT ?
1.01

And the next one, GCGCATTGGT ?
1.06

And the next one, ACCCCTATTT ?
1.11

And the next one, AGTGTTATTT ?
0.993

And the next one, GTGCTAACGG ?
0.963
